target: LRRK2 G2019S (Homo sapiens (Human), UniProt Q5S007, G2019S); assay: LRRK2 G2019S TR-FRET biochemical assay (LRRKtide substrate); conditions: 134 μM ATP, class symbols
Sequence (Q5S007 whole entry G2019S): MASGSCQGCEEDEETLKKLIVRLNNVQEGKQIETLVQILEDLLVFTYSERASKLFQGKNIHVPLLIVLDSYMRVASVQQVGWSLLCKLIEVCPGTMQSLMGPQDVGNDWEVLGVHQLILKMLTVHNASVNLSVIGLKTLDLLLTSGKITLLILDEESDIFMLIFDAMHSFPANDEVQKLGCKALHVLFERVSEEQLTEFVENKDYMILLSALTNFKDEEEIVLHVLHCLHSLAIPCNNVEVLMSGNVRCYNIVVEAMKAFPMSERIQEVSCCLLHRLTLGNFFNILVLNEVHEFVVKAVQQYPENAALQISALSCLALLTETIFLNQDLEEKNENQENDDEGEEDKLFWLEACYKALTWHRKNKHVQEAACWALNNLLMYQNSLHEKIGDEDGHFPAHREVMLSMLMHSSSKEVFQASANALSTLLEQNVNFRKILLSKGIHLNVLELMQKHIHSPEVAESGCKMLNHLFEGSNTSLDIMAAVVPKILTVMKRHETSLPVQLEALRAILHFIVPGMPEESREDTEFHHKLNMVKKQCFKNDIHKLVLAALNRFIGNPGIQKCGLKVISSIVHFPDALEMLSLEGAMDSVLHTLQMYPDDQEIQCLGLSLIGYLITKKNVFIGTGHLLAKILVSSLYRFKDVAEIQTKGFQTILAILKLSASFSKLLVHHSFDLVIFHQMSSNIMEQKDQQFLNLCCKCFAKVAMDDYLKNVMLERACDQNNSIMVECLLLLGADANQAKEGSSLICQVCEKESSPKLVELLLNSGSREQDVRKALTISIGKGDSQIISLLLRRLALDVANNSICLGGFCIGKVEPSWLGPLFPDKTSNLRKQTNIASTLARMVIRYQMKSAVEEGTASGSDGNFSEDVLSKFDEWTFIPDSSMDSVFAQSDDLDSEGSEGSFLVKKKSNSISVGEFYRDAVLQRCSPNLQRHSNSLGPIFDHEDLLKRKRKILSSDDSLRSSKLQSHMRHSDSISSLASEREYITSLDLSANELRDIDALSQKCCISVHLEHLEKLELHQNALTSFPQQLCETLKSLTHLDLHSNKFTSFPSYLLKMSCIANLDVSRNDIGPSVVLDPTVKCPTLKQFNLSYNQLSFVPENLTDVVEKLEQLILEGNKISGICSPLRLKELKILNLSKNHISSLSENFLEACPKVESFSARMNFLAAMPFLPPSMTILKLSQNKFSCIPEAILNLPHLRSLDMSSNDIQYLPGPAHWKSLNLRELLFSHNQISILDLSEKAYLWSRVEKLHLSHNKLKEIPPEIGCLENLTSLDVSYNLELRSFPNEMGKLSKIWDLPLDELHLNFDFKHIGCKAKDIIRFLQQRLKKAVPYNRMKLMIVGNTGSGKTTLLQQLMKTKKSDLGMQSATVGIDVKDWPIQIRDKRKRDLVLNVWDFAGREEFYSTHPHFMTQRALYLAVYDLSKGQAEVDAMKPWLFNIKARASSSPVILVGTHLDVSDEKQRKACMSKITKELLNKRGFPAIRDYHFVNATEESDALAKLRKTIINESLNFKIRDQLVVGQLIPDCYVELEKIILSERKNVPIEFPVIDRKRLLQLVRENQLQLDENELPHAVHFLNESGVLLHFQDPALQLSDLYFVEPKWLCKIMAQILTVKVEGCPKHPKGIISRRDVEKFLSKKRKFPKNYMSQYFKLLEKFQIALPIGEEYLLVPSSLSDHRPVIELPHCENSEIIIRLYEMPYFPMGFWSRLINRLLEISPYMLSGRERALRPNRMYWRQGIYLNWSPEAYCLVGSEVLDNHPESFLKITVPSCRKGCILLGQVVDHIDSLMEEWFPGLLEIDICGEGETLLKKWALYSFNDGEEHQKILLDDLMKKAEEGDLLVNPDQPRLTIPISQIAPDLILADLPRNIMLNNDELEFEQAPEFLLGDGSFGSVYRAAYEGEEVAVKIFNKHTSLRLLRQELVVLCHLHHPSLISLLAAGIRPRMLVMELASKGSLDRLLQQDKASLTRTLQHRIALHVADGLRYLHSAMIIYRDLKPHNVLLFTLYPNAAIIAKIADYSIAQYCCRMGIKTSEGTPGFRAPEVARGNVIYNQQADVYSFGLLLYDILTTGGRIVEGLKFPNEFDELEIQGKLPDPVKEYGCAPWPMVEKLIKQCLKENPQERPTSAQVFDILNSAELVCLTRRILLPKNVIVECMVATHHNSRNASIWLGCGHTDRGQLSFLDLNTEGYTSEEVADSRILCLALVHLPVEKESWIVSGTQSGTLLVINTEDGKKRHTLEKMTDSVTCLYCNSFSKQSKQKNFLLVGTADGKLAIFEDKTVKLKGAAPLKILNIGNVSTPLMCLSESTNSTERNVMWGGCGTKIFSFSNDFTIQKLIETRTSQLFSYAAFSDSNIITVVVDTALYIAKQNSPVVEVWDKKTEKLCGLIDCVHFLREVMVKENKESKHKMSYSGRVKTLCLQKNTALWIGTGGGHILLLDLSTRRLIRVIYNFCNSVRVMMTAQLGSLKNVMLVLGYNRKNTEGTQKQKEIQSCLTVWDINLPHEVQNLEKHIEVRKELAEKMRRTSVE
// reported IC50 for each item listed
experimental-endpoint: IC50

INSERT INTO assay_data (molecule, recorded_measurement) VALUES
  ('COc1nc(Nc2cn(C3(C)CCOC3=O)nc2C)ncc1Br (centres unmarked)', '< 0.03 µM'),
  ('CCNc1nc(Nc2cc(C3(C)CCn4ncnc43)nn2C2CC2)ncc1C(F)(F)F (centres unmarked)', '< 0.03 µM'),
  ('CCN1CCC(F)(F)C(n2ncc(Nc3ncc(C(F)(F)F)c(NC)n3)c2Cl)C1 (centres unmarked)', '< 0.03 µM'),
  ('CNc1nc(Nc2cn(C3(C)CCOC3=O)nc2C)ncc1C(F)(F)F (centres unmarked)', '< 0.03 µM'),
  ('CCNc1nc(Nc2cnn3c2CC(C#N)C3)ncc1C(F)(F)F (centres unmarked) [Compound 52A]', '< 0.03 µM');

###

biological target: LRRK2 G2019S (Homo sapiens (Human), UniProt Q5S007, G2019S); experiment: LRRK2 G2019S TR-FRET biochemical assay (LRRKtide substrate); conditions: 134 μM ATP
experimental-endpoint: IC50 (nM)

INSERT INTO measurements (molecule, assayed_system, experimental_endpoint, recorded_measurement) VALUES
  ('CCNc1nc(Nc2cc(C3(C)CCOC3=O)nn2C2CC2)ncc1Br (centres unmarked) [Compound 150]', 'LRRK2 G2019S (Homo sapiens (Human), UniProt Q5S007, G2019S)', 'IC50', 1.22),
  ('CCNc1nc(Nc2cn(C3(C)CCOC3=O)nc2C2CC2)ncc1Br (centres unmarked) [Compound 114]', 'LRRK2 G2019S (Homo sapiens (Human), UniProt Q5S007, G2019S)', 'IC50', 1.05),
  ('CNc1nc(Nc2cc(C3(C)CCOC3=O)nn2C2CC2)ncc1C(F)(F)F (centres unmarked) [Compound 155]', 'LRRK2 G2019S (Homo sapiens (Human), UniProt Q5S007, G2019S)', 'IC50', 1.95),
  ('CCNc1nc(Nc2cc(C3(C)CCn4ncnc43)nn2C2CC2)ncc1C(F)(F)F (centres unmarked) [Compound 172]', 'LRRK2 G2019S (Homo sapiens (Human), UniProt Q5S007, G2019S)', 'IC50', 1.47),
  ('CCNc1nc(Nc2cn(C3(C)CCOC3=O)nc2C2CC2)ncc1C(F)(F)F (centres unmarked) [Compound 104]', 'LRRK2 G2019S (Homo sapiens (Human), UniProt Q5S007, G2019S)', 'IC50', 0.96);
